Ref: patent US7842469B2

Assay: Luciferase activity of purified RLuc mutants (light output integrated over 10 s, luminometer)
Assay type: biochemical
Details: bisdeoxycoelenterazine; relative to native enzyme
Reported Activity (relative to RLuc) bdc is given for each of the following molecules.

- molecule: "C124A/E195S/P196D: RLuc mutant C124A/E195S/P196D (protein) MASKVYDPEQRKRMITGPQWWARCKQMNVLDSFINYYDSEKHAENAVIFLHGNAASSYLWRHVVPHIEPVARCIIPDLIGMGKSGKSGNGSYRLLDHYKYLTAWFELLNLPKKIIFVGHDWGAALAFHYSYEHQDKIKAIVHAESVVDVIESWDEWPDIEEDIALIKSEEGEKMVLENNFFVETMLPSKIMRKLSDEEFAAYLEPFKEKGEVRRPTLSWPREIPLVKGGKPDVVQIVRNYNAYLRASDDLPKMFIESDPGFFSNAIVEGAKKFPNTEFVKVKGLHFSQEDAPDEMGKYIKSFVERVLKNEQ"
  Activity (relative to RLuc) bdc: 0.15
- molecule: "C124A/K136R: RLuc mutant C124A/K136R (protein) MASKVYDPEQRKRMITGPQWWARCKQMNVLDSFINYYDSEKHAENAVIFLHGNAASSYLWRHVVPHIEPVARCIIPDLIGMGKSGKSGNGSYRLLDHYKYLTAWFELLNLPKKIIFVGHDWGAALAFHYSYEHQDRIKAIVHAESVVDVIESWDEWPDIEEDIALIKSEEGEKMVLENNFFVETMLPSKIMRKLEPEEFAAYLEPFKEKGEVRRPTLSWPREIPLVKGGKPDVVQIVRNYNAYLRASDDLPKMFIESDPGFFSNAIVEGAKKFPNTEFVKVKGLHFSQEDAPDEMGKYIKSFVERVLKNEQ"
  Activity (relative to RLuc) bdc: 2.6
- molecule: "C124A/F180A: RLuc mutant C124A/F180A (protein) MASKVYDPEQRKRMITGPQWWARCKQMNVLDSFINYYDSEKHAENAVIFLHGNAASSYLWRHVVPHIEPVARCIIPDLIGMGKSGKSGNGSYRLLDHYKYLTAWFELLNLPKKIIFVGHDWGAALAFHYSYEHQDKIKAIVHAESVVDVIESWDEWPDIEEDIALIKSEEGEKMVLENNAFVETMLPSKIMRKLEPEEFAAYLEPFKEKGEVRRPTLSWPREIPLVKGGKPDVVQIVRNYNAYLRASDDLPKMFIESDPGFFSNAIVEGAKKFPNTEFVKVKGLHFSQEDAPDEMGKYIKSFVERVLKNEQ"
  Activity (relative to RLuc) bdc: 0.01
- molecule: "C124A/M253L: RLuc mutant C124A/M253L (protein) MASKVYDPEQRKRMITGPQWWARCKQMNVLDSFINYYDSEKHAENAVIFLHGNAASSYLWRHVVPHIEPVARCIIPDLIGMGKSGKSGNGSYRLLDHYKYLTAWFELLNLPKKIIFVGHDWGAALAFHYSYEHQDKIKAIVHAESVVDVIESWDEWPDIEEDIALIKSEEGEKMVLENNFFVETMLPSKIMRKLEPEEFAAYLEPFKEKGEVRRPTLSWPREIPLVKGGKPDVVQIVRNYNAYLRASDDLPKLFIESDPGFFSNAIVEGAKKFPNTEFVKVKGLHFSQEDAPDEMGKYIKSFVERVLKNEQ"
  Activity (relative to RLuc) bdc: 1.7
